src = ChEMBL document CHEMBL1201862

Molecular target: Large T antigen (Simian virus 40, UniProt P03070)
Sequence (P03070 whole entry): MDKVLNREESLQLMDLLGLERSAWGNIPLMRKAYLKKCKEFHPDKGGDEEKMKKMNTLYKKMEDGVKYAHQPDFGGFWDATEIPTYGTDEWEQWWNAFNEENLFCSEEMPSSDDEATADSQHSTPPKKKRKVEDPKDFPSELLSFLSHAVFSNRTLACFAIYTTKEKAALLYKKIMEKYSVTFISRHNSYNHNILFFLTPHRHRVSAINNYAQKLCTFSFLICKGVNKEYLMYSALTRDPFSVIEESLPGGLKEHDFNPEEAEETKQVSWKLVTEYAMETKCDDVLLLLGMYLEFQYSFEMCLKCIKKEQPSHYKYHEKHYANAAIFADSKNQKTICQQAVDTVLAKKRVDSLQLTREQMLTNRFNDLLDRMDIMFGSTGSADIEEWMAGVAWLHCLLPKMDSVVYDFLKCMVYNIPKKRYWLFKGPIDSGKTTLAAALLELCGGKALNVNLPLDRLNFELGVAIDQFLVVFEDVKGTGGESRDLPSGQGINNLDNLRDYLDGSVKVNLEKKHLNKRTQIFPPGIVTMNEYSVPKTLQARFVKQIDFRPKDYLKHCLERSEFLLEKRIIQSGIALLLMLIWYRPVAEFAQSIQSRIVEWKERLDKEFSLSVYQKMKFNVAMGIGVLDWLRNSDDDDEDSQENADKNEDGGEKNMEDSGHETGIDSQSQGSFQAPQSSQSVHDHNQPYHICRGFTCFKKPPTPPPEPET
Assay type: functional, Betapolyomavirus macacae
The source made the active and inactive calls.
Listing of entries alongside the reported IC50.

Examples from the recorded data:
>  <molecule>
CCOc1cc(C(c2c(O)nc(SC)nc2O)c2c(O)nc(SC)nc2O)ccc1O

>  <test system>
Large T antigen (Simian virus 40, UniProt P03070)

>  <observed result>
> 100 µM (active)

$$$$
>  <molecule>
COc1ccc(/C=N/Nc2nc(N3CCCC3)nc(N3CCCC3)n2)cc1O

>  <test system>
Large T antigen (Simian virus 40, UniProt P03070)

>  <observed result>
10.2 µM (active)

$$$$
>  <molecule>
CCOc1cc(C(c2c(C)[nH][nH]c2=O)c2c(C)[nH][nH]c2=O)ccc1O

>  <test system>
Large T antigen (Simian virus 40, UniProt P03070);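 note: Confirmatory-stage PubChem screen for compounds that inhibit SV40 T antigen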

>  <observed result>
> 100 µM (active)

$$$$

Given Cc1nnc(SCc2ccccc2)n1CC1CCCO1 (stereo not given) , state its recorded IC50.
> 100 µM (active)

Can you share its IC50? I mean this molecule: COCC/N=C1/Sc2nc3c(C)cccc3cc2CN1Cc1ccco1
67.5 µM (active)
